Reference source for all entries: PubChem BioAssay (NCI)

Assay Overview: NCI Yeast Anticancer Drug Screen. Data for the cln2 rad14 strain (AID 165);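 also: 0% = growth equal to vehicle treated cultures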
Experimental Context: S. cerevisiae cln2 rad14 strain, at 50.0 µM (retest, dose inferred, filed as 5.0), stronger effect = higher value
This is part of a sample that, as a whole, favours compounds with a hit. Of some 79,000 tested, about 15% had one in any assay.
Result Type: growth inhibition (%)
Value expressed in %; do not type the unit.

See these solved cases before continuing.
CC1Cc2ccc3c(c2C(c2ccc4c(c2)OCO4)C1C)OCO3 (configuration not stated)
-14
CCOC(=O)/C(=C\c1cccc(C(F)(F)F)c1)P(=O)(OCC)OCC
40
Cc1ccc2c(c1C)-c1c(ccc(C)c1C)C(=O)C2=O
98
C=C1C(=O)[C@@]23CC[C@H]4[C@@](C)(CCC[C@@]4(C)C(=O)OC)[C@@H]2CC[C@]1(O)C3
99

Record COc1cc(C(=O)OCC(C)C)ccc1O . Reported growth inhibition: 14

Record N=C(N)Sc1ccc([N+](=O)[O-])cc1Cl . Reported growth inhibition: 89

Record O=C1c2ccc(Cl)cc2C(=O)c2cc(Cl)ccc21 . Reported growth inhibition: 99

Record O=C1CCCCC1=C(I)I . Reported growth inhibition: -4

Record CC1C(O)Oc2cc3c(cc2C1c1ccccc1O)OCO3 (configuration not stated) . Reported growth inhibition: 87

Record CC1CCC(C(C)(C)c2ccc(O)cc2)CC1 (configuration not stated) . Reported growth inhibition: 96

Record CCc1[nH]c2ccccc2c1N1C(=O)CC2(CCN(Cc3ccccc3)CC2)CC1=O . Reported growth inhibition: 2

Record COC(=O)c1ccc2c(c1)CC1(C2)Cc2ccccc2C1=O (configuration not stated) . Reported growth inhibition: 64
